Assay: yeast display, Sf9 membrane polyspecificity reagent, FACS + sequencing; frameworks hold sequencing errors
MEASURED METRIC: polyreactivity (PSR sort gate)

> print(dat)
                                   seq.text                 measured.metric  reported.measurement
1  QVQLVESGGGLVQAGGSLRLSCAASGFIYDKYVMGWSRQAPGKERQLVAAISSGGSTYYADSVKGRFTISRDNAKNTVYLQMNSLKPEDTAVYYCNAGGFWPWVYGYDSWGQGTQVTVSS  polyreactivity (PSR sort gate)   high polyreactivity
2  QVQLVDSGGGLVQAGGSLRLSCAASGRIFRYYAMGWSRQAPGKERELVARITNGAITNYADSVKGRFTISRDNAKNTLYLQRNSLKPEETAVYYCAATQNLYRCGYWGQGTQVTVSS  polyreactivity (PSR sort gate)   high polyreactivity

###

Test: yeast display, Sf9 membrane polyspecificity reagent, FACS + sequencing; frameworks hold sequencing errors

SEQ TEXT	polyreactivity (PSR sort gate)
QVQLVESGGGLVQAGGSLRLSCAASGSTFDGNAMGWYRQAPGKERELVASITQRASNTYYADSVKGRFTISRDNAKNTVDLQMNSLKPEDTAVYYCARQWYWRPVYYIGQGYEYWGQGTQVTVSS	low polyreactivity
QVQLVESGGGLVQAGGSLRLSCAASGIIFGYYAMGWYRQAPGKERELVAAITWSGGSTYYADSVKGRFTISRDNAKNTVYLQMNSLKPEDSAVYYCNADDDGRVSSTIVEYWGQGTQVTVSS	low polyreactivity
QVQLVESGGGLVQAGGSLRLSCAASGFTFTWNTMGWYRQAPGKERELVAAITKSAGSTYYADSVKGRFTISRDNAKNTVYLQMNSLKPEDTAVYYCAARRVSRGNSKFDYYWGQGTQVTVSS	high polyreactivity
QVQLVESGGGLVQAGGSLRLSCAASGRTIQTYTMGWYRQAPGKERELDAVITTRGGRTYYADSVKGRFTISRDNAKNTVYLQMNSLKPEDTAVYYCNKGIPTRSVRSYDYWGQGTQVTVSS	high polyreactivity
QVQLVESGGGLVQAGGSLRLSCAASGSIFLIYAMGSYRQAPGKERELVATINRGDNTYYADSVKGRFTISRDNAKNTVYLQMNSLKPEDTAVYYCAADVPWGWWDSDFSDNYYWGQGTQVTVSS	low polyreactivity

###

Assay: yeast display, Sf9 membrane polyspecificity reagent, FACS + sequencing; frameworks hold sequencing errors

SEQ TEXT	polyreactivity (PSR sort gate)
QVQLVESGGGLVQAGGSLRLSCAASGFIFSRNAMGWYRQAPGKERELVAAISLRGGSTYYADSVKGRFTISRDNAKNTVYLQMNSLKPEDTAVYYCAADSVLTPYDYWVQGTQVTVSS	low polyreactivity
QVQLVESGGGLVQAGGSLRLSCAASGRIIGVNAMGWYRQAPGKERELVAAISWSGGSTYYADSVKGRFTISRDNAKNTVYLQMNSLKPEDTAVYYCATTYFYARRPRGDYWGQGTQVTVSS	high polyreactivity
QVQLVESGGGLVQAGGSLRLSCAASGSIFDDNAMGWYRQAPGKERELVATINYGGGRTSYADSVKGRSTISRDNAKNTVYLQMNSLKPEDTAVYYCAADPRQKEDYWGQGTQVTVSS	low polyreactivity
QVQLVESGGGLVQAGGSLRLSCAASGFTFRDYAMGWSRQAPGKERELVAAISRSGDSTYYADSVKGRFTISRDNAKNTVYLQMNSLKPEDTAVYYYAAKRRYTTYDYWGQGTQVTVSS	high polyreactivity
QVQLVESGGGLVQAGGSLRLSCAASGFIFQYYAMGWFRQARGKERELVAAIRSGGSTYYADSVKGRFTISRDNAKNTFYLQLNSLKPEDTAVYFCGAKYRVFYGFDYWGQGTQVTVSS	high polyreactivity
QVQLVESGGGLVQAGGSLRLSCAASGRTFGRYAMGWYRQAPGKEREFVAAIRSHGVSTYYADSVKGRFTISRDNAKNTVYLQMNSLKPEDTAVYYCAKPSTSYYQRGDYWGQGTQVTVSS	high polyreactivity
QFQLEESGGGLVQAGGSLRLSCADSGIIFFFYAMGWYRQAPGKERELVAAISDDGVSTDYADSVKGRFTISRDNAKNTVYLQMNSLKPEDTAVYYCAAKTERVYPWFSFGYWGQGTQVTVSS	low polyreactivity
QVQLVESGGGLDQAGGRLRLSCAASGRTFVYYAMGWYRQAPGKERELVATITRGGRTNYADSVKGRFTISRDNAKNTVYLQMNSLKPEDTAVYYCNARYSWWRSRVGSSHRPDGYWGQGTQVTVSS	high polyreactivity
QVQLVESGGGLVQAGGSLRLSCAASGSTFGRNAMGWYRQAPGKERELVATITKSGGSTYYADSVKGRFTISRDNAKNTVYLQMNSLKPEDTAVYYCAKGVYYKVLRGGGDYWGQGTQVTVSS	high polyreactivity
QVQLVESVGVLVQAGGSLRLSCAASGSTFSSYAMGWYRPAPGKERELVAVISSRGTSTSYADSVKGRFTISRDNAKNTVYLQMNSLKQEDTAVYYCAASRFRWVQRYDYWGQGTQVTVSS	high polyreactivity
QVQLVESGGGLVQAGGSLRLSCAASGRIFPFYVMGWYRQAPGKERELVATINWSGGSTYYADSVKGRFTISRDNAKNTVYLQMNSLKPEETAVYYCNAAPSDDYDYWGQGTQVTVSS	low polyreactivity
QVQLVESGGGLVQAGGSLRLSCAASGFTFDRNAMGWYRQAPGKERELVATISQSGTNTYYADSVKGRFTISRDNAKNTVYLQMNSLKPEDTAVYYCNARYIFYRYDYWGQGTQVTVSS	low polyreactivity
QVQLVESGGGLVQAGGSLRLSCAASGSTFNYNAMGWYRQAPGKERELVAAIRSSDGSTHYADSVKGRFTISRDNAKNTVYLQMNSLKPEDTAVYYCAADYDVWWRDDYWGQGSQVTVSS	low polyreactivity
QVQLVESGGGLVQAGGSLRLSCAASGIISRVYAMGWYRLAPGKERELVAAISGSGGTTYYADSVKGRFTISRDNAKNTVYLLMNSLKPEDTAVYYCAARYKALYDYWGQGSQVTVSS	high polyreactivity
QVQLVESGGGLVQAGGSLRLSCAASGSTFSGYAMGWYRQAPGKERELVAAISTSGGRTYYADSVKGRFTISRDNAKNTVYLQMNSLKPEDTAVYYCAAQYRGLYKGLGSWGQGTQVTVSS	high polyreactivity
QVQLVESGGGLVKEGGSLRLSCAASGSIFLQYAMGWYRQAPGKERELVAGISLRGCSTYYADSVKGRFTISRHNAKNTVYLQLNSLKPEDTAVYYCAADVIVTVETYTSGPSFTEYDYWGQGTQVTVSS	low polyreactivity
QVQLVESGGGLVQAGGSLRLSCAASGRTFYRYAMGWYRQAPGKERELVAGITSGGITYYADSVKGRFTISRDNAKNTVYLQMNSLKPEDTAVYYCAASYAFFSYRAWYTSGNEYWGQGTQVTVSS	high polyreactivity
QVQLVESGGGLVQAGGSLRLSCASSGSTFVYNVMGRYRQAPGKERDLVAAISRSGGSTYYADSVKGRFTISRDNAKNSVYLQMNSLKPEDTAVYYCAKRVYGWWYDHWGQGTQVTVSS	high polyreactivity
QVQLVESGGGLVQAGGSLRLSCAASGSIFPYYAMGWYRQAPGKERELVATISSGGSTFYADSVKGRFTISRDNAKKTVYLQMNSLKPEDTAVYYCAADIWYFDYDYWGQGTQVTVSS	high polyreactivity
QVQLVESGGGLVQAGGSLRLSCAASGITYGTYAMGWYRQAPGKERELVARITGSGGRTYYADSVKGRFTISRDNAKNTVYLQMISLKPEDTAVYYCAAETWRRYLFGYWGQGTQVTVSS	high polyreactivity
QVQLVESGGGLVQAGVSLRLSCAASGFISDWYAMGWYRQAPGNERELVATLDWIGGSTYADSVKGRFTISRDNAKNTVYFQMNSLKPEDTAVYYCAADSFFIAWYGAHYAYDDWGQGTQVTVSS	low polyreactivity

###

Test: yeast display, Sf9 membrane polyspecificity reagent, FACS + sequencing; frameworks hold sequencing errors
MEASURED METRIC: polyreactivity (PSR sort gate)

SEQ TEXT	REPORTED MEASUREMENT
QVQLVESGGGLVQAGGSLRLSCAASGSIFKTYAMGWSRPAPGKERELVAAITSSGGSTYYADSVKGRFTISRDNAKNTVDLQMNSLKPEDTAVYDCAALSGQARRMYYWGQGTQVTVSS	high polyreactivity
QVQLLESGGGLVQAGGSLRLSCAASGLTFPLYAMGWYRQAPGKERELVAAINWSGGSTYYADSVKGRFTISRDKAKNTVYLQMNSLKPEDTAVYYCAAARSSLYYYWGQGTQVTVSS	high polyreactivity

###

Assay: yeast display, Sf9 membrane polyspecificity reagent, FACS + sequencing; frameworks hold sequencing errors

SEQ TEXT	polyreactivity (PSR sort gate)
QVQLVESGGGLVQAGGSLRLSCASSGRIFYGYAMVWYRQAPGKERELVAAIRWYGGNTYYADSVKGRFTISRDNAKNTVYLQMNSLKPEDTAVYYCAARAYYARFVMGYWGQGTQVSVSS	high polyreactivity
QVQLVESGVGLVQAGGSLRLSCAASGIIFSSYAMGWYRQAPGKERELVAAITWNGGRTYYADSVKGRFTISRDNAKNSVYLQMNSLKPEDTAVYYCAALQGRSSARQDSYGYWGQGTQVTVSS	high polyreactivity
QVQLVESGGGLVQAGGSLRLSCAASGSTFVGYAMGWYRQAPGKVRELVADITSGGGITYYADSVKGRFTISRDNAKNTVYLQMNSLKPDDTAVYYCAPGRPRPHWWSLDYYYWGQGTQVTVSS	low polyreactivity
QVQLVDSGGGLVQAGGSLSLSCAASGSIFNVYGMGWYRQAPGKERELVARINSRGGITYYADSVKGRFTISRDNAKNTVYLQMNSLKPEDTAVYYCATDTQDLQGYSWFDYWGQGTQVTVSS	high polyreactivity
QVQLVESGGGLVQAGGSLRLSCAASGSTFRQYAMGWYRQAPGKERELVAAIRGRDGSTYYADSVKGGFTISRDNAKYTVYLQMNSLKPEDSAVYYCNVVARGVSPGYDYWGQGTQVTVSS	high polyreactivity
QVQLVESGGGLVQAGGSLRLSCAASGSTFPTNAMGWYRQAPGKERELVAAISQRGDSTSYADSVKGRFTISRDNAKNTVYLQMNSLKPEDTAVYYCAARPLYSYSQWGYGYWGQGTQVTVSS	high polyreactivity
QVQLVESGGGLVQAGGSLRLSCAASGRIFGYYTMGWYRQAPGKERELVAAISSGGTTYYADSVKGRFTISRDNAKNTVYLQMNSLKPEDTAVYYCAADYYNTYGYDYWGQGTQVTVSS	low polyreactivity
QVQLVESGGGLVQAGGSLRLSCAASGRTFYRYAMGWYRQAPGKERELVARITNRGGITYYADSVKGRFTISRDNAKNTVYLQMNSLKPEDTAVYYCAADPIGYTWAGTHGDYYNEHDYWGQGTQVTVSS	low polyreactivity
QVQLVESGGGLVQAGGSLRLSCAASGFTFQENAMGWYRQATGKERELVAAISKSGGITYYADSVKGRFTISRENAKNNVYLQMNSLKPEDTAVYYCNIGNAYVVYTSGYDYWGQGTQVTVSS	low polyreactivity
QVQLVESGGGLVQAGGSLRLSCAASGSTITQYAMGWYRQAPGKEREFVAAINSRGDSTYYADSVKGRFTISRDNAKNTVYLQMNSLKPEDTAVYYCNADYQTDDDPYGYDYWGQGTQVTVSS	low polyreactivity
QVQLVESGGGLVQAGGSLRLSCAASGSIFDVYAMGWYRQAPGKERELVAAINGGGSTYYADSVKGRFTISRDNAKNTVYLQMNSLKPEDTAVYYCAADRYYYAYRYYPSGYWGQGTQVTVSS	low polyreactivity
